assay info: DUSP6 inhibitors restoring Erk phosphorylation by chemical complementation, primary imaging in DUSP6-transfected HeLa (AID 609)
condition info: HeLa MKP-3 transfected, phospho-Erk imaging KS statistic; measured here: nuclear c-Myc green intensity z-score; at 10 µM; cells stimulated with TPA for 15 min
So basically: z-score at 0.4 or higher? That is y. Lower than 0.4? That is n.

Does the reported z-score for CCCc1cc(-n2ccnc2C)n2c(nc3ccccc32)c1C#N fall at or above the 0.4 mark?
n

Identify whether the reported z-score of the following compound is 0.4 or greater: N#Cc1nc(-c2cccs2)oc1NCCc1ccccc1
n

Is the recorded value of z-score equal to or greater than 0.4 for this compound? CCNc1nc(Oc2ccccc2)nc(OC(C)C(=O)OCC)n1 (configuration not stated)
n

Determine whether measured z-score meets or exceeds 0.4 for Nc1nc(NC(=O)c2cccs2)nn1-c1ccccc1
y

Is z-score for COc1cccc(C2/C(=C(\O)c3ccc4c(c3)OCCO4)C(=O)C(=O)N2CCN(C)C)c1 (configuration not stated) at or above 0.4?
n

Could you tell me if the measured z-score of CC(C)Nc1nc(NC(C)C)nc(N(C)n2cnnc2)n1 reaches 0.4 or more?
n

Assess whether reported z-score for Cn1c(=O)c2c3c(sc2n2c(SCC(N)=O)nnc12)CC(C(C)(C)C)CC3 (configuration not stated) sits at 0.4 or higher.
n

Does CN1CCCN(C(c2ccccc2)c2ccc(Cl)cc2)CC1 (configuration not stated) have a reported z-score of at least 0.4?
n

Identify whether the reported z-score of the following compound is 0.4 or greater: CCOC(=O)CC(C#N)c1cn(C)c2ccccc12 (configuration not stated)
y

z-score >= 0.4 for CCOC(=O)C1CCN(c2nc3ccccc3nc2C(C#N)C(=O)OC(C)C)CC1 (configuration not stated) ?
n

Does Cc1nnc(C)n1/N=C/c1cc(Br)cc(Br)c1O have a reported z-score of at least 0.4?
n

Assess whether reported z-score for COc1ccc(CCN2CCC(Nc3nc4ccccc4n3Cc3ccc(F)cc3)CC2)cc1 sits at 0.4 or higher.
y

Does z-score meet or surpass 0.4 for COc1ccc(OC)c(NC(=O)CSC2=C(C#N)C(c3ccco3)C3=C(CCCC3=O)N2)c1 (configuration not stated) ?
n

Does z-score meet or surpass 0.4 for COc1c2occc2c(OC)c2c(=O)cc(C)oc12 ?
n

Check if z-score >= 0.4 (inclusive). Item: COc1cccc(-c2nc(NC(C)(C)C)c3ccccc3n2)c1O
n

Assess whether reported z-score for Cc1ccc(-n2ncc3c(N4CCN(c5ccccc5)CC4)ncnc32)c(C)c1 sits at 0.4 or higher.
n

Item CC1(C)Cc2c(sc3[nH]c(=S)n(Cc4ccco4)c(=O)c23)CO1 with z-score of 0.4 or above?
n

Please check the record CSCCC(CO)NC(=O)OCc1ccccc1 (configuration not stated) and state if its z-score is at or above 0.4.
n

Textbook exercise: given the entry CN(C)CCOC(=O)C(c1ccccc1)C1(O)CCCC1 (configuration not stated) , state whether its z-score is greater than or equal to 0.4.
n

Please tell me: is the compound O=C(NCCN1CCCCC1)c1ccc(=O)oc1 at or over 0.4 in terms of z-score?
y

Item Cn1c(NCC(O)c2ccccc2)nc2c1c(=O)n(Cc1ccc(Cl)c(Cl)c1)c(=O)n2C (configuration not stated) with z-score of 0.4 or above?
y

Could you please find out whether CN(C)C(CN1C(=O)C2CC=CCC2C1=O)c1cn(C)c2ccccc12 (configuration not stated) has z-score that meets 0.4 or exceeds it?
y

Item CCCOc1ccc(Cc2nn[nH]n2)cc1 with z-score of 0.4 or above?
y

Would you say OC(CCN1CCCCC1)(c1ccccc1)c1ccccc1 shows z-score at minimum 0.4?
n

Reported z-score reaches at least 0.4 for C[N+](C)(C)CCOP(=O)([O-])OC[C@H](O)CO ?
y

Check the entry COc1ccc(NC2CC(=O)N(C)C2=O)cc1 (configuration not stated) : does z-score equal or exceed 0.4?
n

----------
target or system: Voltage-gated potassium channel subunit beta-2 (Rattus norvegicus) (UniProt P62483)
Sequence (P62483 whole entry, looked up): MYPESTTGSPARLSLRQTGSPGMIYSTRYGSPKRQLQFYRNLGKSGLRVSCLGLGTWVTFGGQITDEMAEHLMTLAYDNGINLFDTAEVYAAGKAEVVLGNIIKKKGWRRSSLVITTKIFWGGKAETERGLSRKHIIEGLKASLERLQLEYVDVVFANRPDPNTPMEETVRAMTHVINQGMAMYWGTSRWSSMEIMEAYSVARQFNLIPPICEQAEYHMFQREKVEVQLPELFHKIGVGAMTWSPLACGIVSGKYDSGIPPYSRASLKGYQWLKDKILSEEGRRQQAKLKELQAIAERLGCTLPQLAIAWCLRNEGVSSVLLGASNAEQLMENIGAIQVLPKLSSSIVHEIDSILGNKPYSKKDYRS
assay info: KvBeta enzyme negative modulators, primary screen, biochemical, NADPH fluorescence (AID 622);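 also: slope of raw intensity against log time taken from 70 to 1610 s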
condition info: recombinant KvBeta, 4-cyanobenzaldehyde reduction, at 10 µM, stronger effect = higher value
quantity measured: fluorescence slope
Reply with just the number.

Form field - read-out: fluorescence slope; system: Voltage-gated potassium channel subunit beta-2 (Rattus norvegicus) (UniProt P62483); submitted item: CCN(CC)CCCn1c(C)cc2c(c1=O)C(c1ccccc1)C(C#N)=C(N)O2 (stereo not drawn)
-0.395

Form entry - test system: Voltage-gated potassium channel subunit beta-2 (Rattus norvegicus) (UniProt P62483); read-out: fluorescence slope; compound: N#CC1=C(N)NC(SCc2ccc(F)cc2)=C(C#N)C12CCCCC2
-0.404

Fill in the recorded fluorescence slope for this compound, with Voltage-gated potassium channel subunit beta-2 (Rattus norvegicus) (UniProt P62483) as test system: CCOC(=O)c1ccc(N=Cc2nc(-c3ccccc3)oc2OC(C)=O)cc1
-0.395

----------
assay info: inhibitors of Sendai virus-induced IRF3 signaling, primary screen, TLR/RLR signaling modifier project, cell-based, Sendai virus stimulus, luciferase, 10K MLSCN set (AID 602276);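 also: firefly luciferase from ISG56 promoter only with Renilla not read in this screen; 0% = Sendai virus plus DMSO and 100% = medium plus DMSO without virus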
condition info: HEK293 RL24 IRF3 luciferase reporter, at 10 µM, stronger effect = higher value
Please go through the items and note down their inhibition.
Numbers only; they are read as %.

What measured inhibition goes with COc1ccc(Cl)cc1C(=O)NCCc1ccc(S(=O)(=O)NC(=O)NC2CCCCC2)cc1 ?
19.2

// query inhibition value for entry CC(C)(C)NCc1cc2ccccc2[nH]c1=O
12.2

Recorded inhibition of Cc1c(OCC(F)(F)F)ccnc1CS(=O)c1nc2ccccc2[nH]1 (stereo not given) , please.
-45.4

// returns reported inhibition for input CCOC(=O)c1c(C)n(C)c2ccc(O)c(S(=O)(=O)c3ccccc3)c12
21.8

Request the reported inhibition associated with Nc1nnnn1/N=C/c1ccccn1
-14.9

Reported inhibition, compound CCC[C@@H]1C[C@@H](C(=O)N[C@H]([C@@H](C)O)[C@H]2O[C@H](SC)[C@H](O)[C@@H](O)C2O)N(C)C1 (stereo not given in full) : ____
19.5

inhibition lookup needed for O=C(/C=C/c1ccccc1)c1ccccc1 , thanks.
-12.6

Given CCCCN1C[C@H](O)[C@@H](O)[C@H](O)[C@H]1CO , state its recorded inhibition.
14

Looking for the measured inhibition of C[C@]12CC[C@@H]3c4ccc(OS(=O)(=O)O)cc4CC[C@H]3[C@@H]1CCC2=O , can you help?
11.2

Which inhibition reading was recorded for the compound N#CC(C(=O)Nc1ccc(Cl)c(Cl)c1)=C1Nc2ccccc2N1 ?
12.6

Form field: reported inhibition of CCC(C(=O)OCCN(CC)CC)c1ccccc1 (stereo not given)
8.3

Recorded inhibition for Cc1ccc(SCc2[nH]nc3c2C(c2ccc(C)o2)C(C#N)=C(N)O3)cc1 (stereo not given) , please?
-13.7

Entry N=c1c[n+](N2CCOCC2)[n-]o1 : reported inhibition = ?
19.5

Would you mind telling me what inhibition value was observed for Nc1cccc(C(=O)O)c1 ?
9.57

Field request: inhibition | item: Cc1cccc(C)c1NC(=O)C1CCCCN1C (stereo not given)
12.7

If you can, please state the reported inhibition value of NS(=O)(=O)c1cc2c(cc1Cl)NC(C1C[C@H]3C=C[C@@H]1C3)NS2(=O)=O (stereo not given in full) .
-6.01

For the compound Cc1ccc(S(=O)(=O)NC(=O)NN2CCCCCC2)cc1 , what inhibition is on record?
9.08

inhibition for C=CCOc1nc2c(c(=O)n(C)c(=O)n2C)n1Cc1c(Cl)cccc1Cl ?
11.4

For the compound shown here, CC(=O)C1=C(NC(=O)c2ccccc2F)C[C@@H]2[C@H]1C2(C)C , give the reported inhibition.
-7.48

Please look up its inhibition: Cc1nc2sccn2c(=O)c1CCN1CCC(=C(c2ccccc2)c2ccc(F)cc2)CC1
18.4

----------
assay info: inhibitors of TNFa-induced NFkB p65 translocation, primary screen, imaging, HUVEC, MLSMR starter and 10KST1 sets (AID 438);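 also: compound added about 3h40 before a 20 min TNFalpha stimulation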
condition info: HUVEC TNFa-induced p65 nuclear translocation; measured here: nuclei count (cytotoxicity indicator), at 2.08 µM
So basically: cell count at 400 or higher? That is 1. Lower than 400? That is -1.

Can CCOc1ccc(Cn2c(O)cc(=O)[nH]c2=O)cc1 be said to have cell count at or above 400?
1

Determine whether measured cell count meets or exceeds 400 for COc1cc(C2C3C(=O)N(c4ccc(F)cc4)C(=O)C3ON2c2ccccc2)ccc1O (stereo not drawn)
1

Identify whether the reported cell count of the following compound is 400 or greater: CCOC(=O)C1=C(CSc2nc3c(cc2C#N)CCC3)OC(N)=C(C#N)C1c1ccccc1 (stereo not drawn)
1

Textbook exercise: given the entry Cc1cc2c(c(=O)n1CC1CCCO1)C(c1ccc3c(c1)OCO3)C(C#N)=C(N)O2 (stereo not drawn) , state whether its cell count is greater than or equal to 400.
1

I'd appreciate it if you could say whether Cc1ccc2nc(NCc3ccccc3)[nH]c2c1 has cell count at least equal to 400.
-1

Kindly determine if cell count recorded for CCOC(=O)C1=C(C)NC(C)=C(C(=O)OC)C1c1cccc(Cl)c1Cl (stereo not drawn) is above or exactly 400.
1

For this compound, is measured cell count 400 or higher? COc1ccc(/C=N/n2cncn2)cc1CSc1ccccn1
-1

Does O=C1C(=O)N(CCN2CCOCC2)C(c2ccccn2)/C1=C(/O)c1ccccc1 (stereo not drawn) have a reported cell count of at least 400?
-1
